biological target: mammalian pols; assay: DNA polymerase activity inhibition, summary over the panel; assay type: biochemical; conditions: all of the mammalian pols (11 species); read-out: IC50 values
pIC50: −log10 of the molar value.
readoutType: pIC50

Req: So what's the measured pIC50 for this one? CCCCCCCC/C=C\CCCCCCCC(=O)Oc1cccc2c1C(=O)C=C(C)C2=O
Resp: 4.97 to 5.35

---

Molecular target: T4 pol (Enterobacteria phage T4)
Sequence (P04415 1-898): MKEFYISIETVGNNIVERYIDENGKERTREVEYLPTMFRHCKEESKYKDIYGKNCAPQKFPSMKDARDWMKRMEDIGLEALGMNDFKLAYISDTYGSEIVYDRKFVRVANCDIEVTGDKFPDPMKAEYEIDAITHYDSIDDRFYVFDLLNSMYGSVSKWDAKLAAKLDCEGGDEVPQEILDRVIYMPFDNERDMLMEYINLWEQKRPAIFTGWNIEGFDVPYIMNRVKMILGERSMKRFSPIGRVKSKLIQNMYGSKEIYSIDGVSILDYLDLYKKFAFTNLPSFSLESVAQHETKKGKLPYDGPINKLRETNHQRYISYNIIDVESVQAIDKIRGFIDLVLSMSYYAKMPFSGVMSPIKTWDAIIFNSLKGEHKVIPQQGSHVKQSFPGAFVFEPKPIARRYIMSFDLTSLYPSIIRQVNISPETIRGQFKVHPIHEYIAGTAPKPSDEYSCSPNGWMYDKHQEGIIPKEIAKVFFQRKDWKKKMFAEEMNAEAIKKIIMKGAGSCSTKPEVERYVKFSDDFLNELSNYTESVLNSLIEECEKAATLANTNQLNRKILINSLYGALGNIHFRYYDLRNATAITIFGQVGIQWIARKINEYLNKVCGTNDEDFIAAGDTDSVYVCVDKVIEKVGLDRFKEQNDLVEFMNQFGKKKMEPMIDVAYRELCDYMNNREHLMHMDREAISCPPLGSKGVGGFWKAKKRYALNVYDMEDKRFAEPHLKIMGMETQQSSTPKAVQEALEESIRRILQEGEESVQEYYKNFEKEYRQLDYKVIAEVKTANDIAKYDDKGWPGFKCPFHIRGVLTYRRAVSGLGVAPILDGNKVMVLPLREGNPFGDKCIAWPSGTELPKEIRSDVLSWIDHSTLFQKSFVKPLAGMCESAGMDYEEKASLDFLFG
pIC50: −log10 of the molar value.
readoutType: pIC50

Req: T4 pol (Enterobacteria phage T4) / pIC50 / CCCCCCCC/C=C\CCCCCCCC(=O)Oc1cccc2c1C(=O)C=C(C)C2=O : value?
Resp: < 4.00

Where do the numbers come from? From paper PMC3919815.
